protocol.text: soluble fraction after stress (log2 fold change); higher = more stays soluble; pooled small domains, quantitative proteomics;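 note: 20 min heating vs room temperature control held 20 min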
test.context: stress: 75 degC
Cut-off 0.02 on soluble fraction (log2), inclusive. At or above means true; below means false.

Some solved cases for reference:
Inquiry: Does soluble fraction (log2) meet or surpass 0.02 for HMQTNEAIINQAVQAAEAQNITTRSQAVDALKANGMTEAQARQLAVQRGISYDQLINELFPME ?
Reply text: false

Inquiry: Does soluble fraction (log2) meet or surpass 0.02 for HMITETIGANIKTLRDKFRMSQQDLASKMNTARPVISNWENGKTEPSSSQLLKLAKIFDTSTDKILGNV ?
Reply text: true

Inquiry: Does soluble fraction (log2) meet or surpass 0.02 for HMRAEPNSNYSLAIIYKNRYDIAVKKKDAVKEVEYGKMVYEYLNKYVVLSGNKSAKYKKILNYFSSY ?
Reply text: false

Inquiry: Does soluble fraction (log2) meet or surpass 0.02 for HMKESRLFRILYYLLQHKKATAPELAEEFEVSVRTIYRDIDYISSAGVPIYATQGKDGGIAILDSF ?
Reply text: false

---
Inquiry: Does soluble fraction (log2) meet or surpass 0.02 for HMVNPDAPAPLYIVNGKETDKNIALAIKPEDVQDVRIIKNTVALQVYGEKGKNGVVIINTKPGV ?
Reply text: true

Inquiry: Does soluble fraction (log2) meet or surpass 0.02 for HMNREENIQIGRDLLERELRKQGMDLQENLRQEVLLDGAKKLGFNNTDDLLAAIGDLKVTPAMFIGKIA ?
Reply text: true

Inquiry: Does soluble fraction (log2) meet or surpass 0.02 for HMTISPYTKDDFLKGTKPFEDVYAHKADPFVHDRALEQMTIWAKSVGVNGFKKLYKAYIDSLRIKNKEI ?
Reply text: false

====

Listed next: entries and their corresponding soluble fraction (log2).
protocol.text: soluble fraction after stress (log2 fold change); higher = more stays soluble; pooled small domains, quantitative proteomics
test.context: stress: 75 degC
Kindly provide the number alone.

Inquiry: For the sequence HMVTLYDGFLSELRKRIPRGAELTNTLVDMLYIEREAVYRRLRGEVPFTFIEVMTVSKELGISLDNLAQA , give its reported soluble fraction (log2).
Reply text: -1.38

Inquiry: For the sequence HMAHKYYSIMRPVSIGTFPDNGTILGIVNFDTRQMVESIGKMAWGYINYGKPLTEKQISDYELVAE , give its reported soluble fraction (log2).
Reply text: -1.4

Inquiry: For the sequence HMKVVEKHIVPQIQNPIRLQEYASSIFKTITTRSGIKKAIKKQLILLNRKPANTGDWIKEGQLLELLAEE , give its reported soluble fraction (log2).
Reply text: -2.53

Next sequence, please.
Inquiry: For the sequence HMFGEKEFYQWIGKTAGEKFSGLPAAVIKSLYKYWREYNLSEEDIMGFIRQTELLPKRTPLDVELFFEK , give its reported soluble fraction (log2).
Reply text: -0.857

====

Listed next: entries and their corresponding soluble fraction (log2).
protocol.text: soluble fraction after stress (log2 fold change); higher = more stays soluble; pooled small domains, quantitative proteomics
test.context: stress: 75 degC
Kindly provide the number alone.

Inquiry: For the sequence HMYVADVVGMGIKDALYILENQGLRVVFTGKGVVKNQSIAVGEKIIKGEKIVLML , give its reported soluble fraction (log2).
Reply text: -1.88

Inquiry: For the sequence HMENTIPSVIGRTLSDGVFLLESYGYVKGNVSEEFSEMPIGVIIRQFPGAGSAAEAGTRVDLVVSKGEEIV , give its reported soluble fraction (log2).
Reply text: 0.124

Inquiry: For the sequence HMTESIHVGSKVTINNNAKRWATGQNIYSGVKGKTYTVIQMNGSRLLLDKVISWINKGDVHLPGS , give its reported soluble fraction (log2).
Reply text: -1.94

Inquiry: For the sequence HMHSGFHSAILDVDRAVKEGKTLYEALNKYPYIFDETFRSLVRAGEASGELPSILSKLALYLEEQSK , give its reported soluble fraction (log2).
Reply text: -2.04
